Entry source: paper PMC9661473

System: DNA TA (DNA, aptamer) GGTTGGTGTGGTTGG
method-notes: microscale thermophoresis
condition: 100 mM KCl; 25 mM PBS, pH 7.05, 25 °C, 200 nM aptamer
Where a SMILES comes first, the peptide text is derived from it.
observation-type: binding

| compound | obs-value |
| --- | --- |
| N[C@@H](Cc1ccc(O)cc1)C(=O)N[C@@H](CCC(=O)O)C(=O)O (H-Tyr-Glu-OH) | no |
| N=C(N)NCCC[C@H](NC(=O)[C@@H](N)CCC(=O)O)C(=O)O (H-Glu-Arg-OH) | no |
| N=C(N)NCCC[C@H](N)C(=O)O | no |
| NC(N)=NCCC[C@H](NC(=O)[C@H](CCC(=O)O)NC(=O)[C@@H](N)Cc1ccccc1)C(=O)O (H-Phe-Glu-Arg-OH) | no |
| N[C@@H](CCC(=O)O)C(=O)O | no |
| NCCCC[C@H](NC(=O)[C@H](CCC(=O)O)NC(=O)[C@@H](N)Cc1ccc(O)cc1)C(=O)O (H-Tyr-Glu-Lys-OH) | no |
| N[C@@H](Cc1ccc(O)cc1)C(=O)O | no |
